PROTOCOL_SUMMARY: xn = mol fraction of the nth substance listed
CONDITION_DESCRIPTION: 288.15 K, x1 = 0.5

COMPOUND: CCCC(=O)OCCC(C)C [3-methylbutyl butanoate] + CCO
surface tension liquid-gas, mN/m: 24.7
//
COMPOUND: CC(=O)OCCC(C)C [3-methylbutyl ethanoate] + CCO
surface tension liquid-gas, mN/m: 24.4
//
COMPOUND: CCOC(=O)c1ccccc1 [ethyl benzoate] + CCO
surface tension liquid-gas, mN/m: 29.7
//
COMPOUND: CCCCCCCC(=O)OCC [ethyl octanoate] + CCO
surface tension liquid-gas, mN/m: 26.1
//
COMPOUND: CCOC(=O)Cc1ccccc1 [ethyl phenylacetate] + CCO
surface tension liquid-gas, mN/m: 29.7
//
COMPOUND: CCCCCC(=O)OCC [ethyl hexanoate] + CCO
surface tension liquid-gas, mN/m: 25.4

====

PROTOCOL_SUMMARY: xn = mol fraction of the nth substance listed
CONDITION_DESCRIPTION: 298.15 K, x1 = 0.4

COMPOUND: CCOC(=O)Cc1ccccc1 [ethyl phenylacetate] + CCO
surface tension liquid-gas, mN/m: 27.3
--
COMPOUND: CC(=O)OCCC(C)C [3-methylbutyl ethanoate] + CCO
surface tension liquid-gas, mN/m: 23.1
--
COMPOUND: CCCCCC(=O)OCC [ethyl hexanoate] + CCO
surface tension liquid-gas, mN/m: 24.2
--
COMPOUND: CCCCCCCC(=O)OCC [ethyl octanoate] + CCO
surface tension liquid-gas, mN/m: 24.9
--
COMPOUND: CCOC(=O)c1ccccc1 [ethyl benzoate] + CCO
surface tension liquid-gas, mN/m: 27.7
--
COMPOUND: CCCC(=O)OCCC(C)C [3-methylbutyl butanoate] + CCO
surface tension liquid-gas, mN/m: 23.6

====

PROTOCOL_SUMMARY: refractive index (Na D-line) (dimensionless); xn = mol fraction of the nth substance listed
CONDITION_DESCRIPTION: 308.15 K; 100.5 kPa; Liquid; Standard Abbe refractometry; x1 = 0.25

MOLECULE: CCOC(=O)c1ccccc1 [ethyl benzoate] + CCO
refractive index: 1.42135
--
MOLECULE: CCOC(=O)Cc1ccccc1 [ethyl phenylacetate] + CCO
refractive index: 1.42047
--
MOLECULE: CCCCCC(=O)OCC [ethyl hexanoate] + CCO
refractive index: 1.37706
--
MOLECULE: CC(=O)OCCC(C)C [3-methylbutyl ethanoate] + CCO
refractive index: 1.3726
--
MOLECULE: CCCCCCCC(=O)OCC [ethyl octanoate] + CCO
refractive index: 1.38477
--
MOLECULE: CCCC(=O)OCCC(C)C [3-methylbutyl butanoate] + CCO
refractive index: 1.37967

====

# refractive index values compiled below
PROTOCOL_SUMMARY: refractive index (Na D-line) (dimensionless); xn = mol fraction of the nth substance listed
CONDITION_DESCRIPTION: 318.15 K; 100.5 kPa; Liquid; Standard Abbe refractometry; x1 = 0.3

COMPOUND: CCCCCCCC(=O)OCC [ethyl octanoate] + CCO
refractive index: 1.38398
--
COMPOUND: CCCCCC(=O)OCC [ethyl hexanoate] + CCO
refractive index: 1.3755
--
COMPOUND: CCOC(=O)c1ccccc1 [ethyl benzoate] + CCO
refractive index: 1.42576
--
COMPOUND: CCCC(=O)OCCC(C)C [3-methylbutyl butanoate] + CCO
refractive index: 1.37832
--
COMPOUND: CCOC(=O)Cc1ccccc1 [ethyl phenylacetate] + CCO
refractive index: 1.42447
--
COMPOUND: CC(=O)OCCC(C)C [3-methylbutyl ethanoate] + CCO
refractive index: 1.37056

====

PROTOCOL_SUMMARY: refractive index (Na D-line) (dimensionless); xn = mol fraction of the nth substance listed
CONDITION_DESCRIPTION: 298.15 K; 100.5 kPa; Liquid; Standard Abbe refractometry; x1 = 0.75
± gives the expanded uncertainty stated by the source.

COMPOUND: CC(=O)OCCC(C)C [3-methylbutyl ethanoate] + CCO
refractive index: 1.39378 ± 0.00033

COMPOUND: CCCCCC(=O)OCC [ethyl hexanoate] + CCO
refractive index: 1.40019 ± 0.00032

COMPOUND: CCCC(=O)OCCC(C)C [3-methylbutyl butanoate] + CCO
refractive index: 1.40349 ± 0.00033

COMPOUND: CCOC(=O)c1ccccc1 [ethyl benzoate] + CCO
refractive index: 1.48675 ± 0.00032

COMPOUND: CCCCCCCC(=O)OCC [ethyl octanoate] + CCO
refractive index: 1.41047 ± 0.00032

COMPOUND: CCOC(=O)Cc1ccccc1 [ethyl phenylacetate] + CCO
refractive index: 1.48072 ± 0.00033

====

PROTOCOL_SUMMARY: xn = mol fraction of the nth substance listed
CONDITION_DESCRIPTION: 298.15 K, x1 = 0.8
ENDPOINT_LABEL: surface tension liquid-gas (mN/m)

MOLECULE: CCOC(=O)Cc1ccccc1 [ethyl phenylacetate] + CCO
UNIT: mN/m
RESULT_NUMBER: 32.1
//
MOLECULE: CCCCCCCC(=O)OCC [ethyl octanoate] + CCO
UNIT: mN/m
RESULT_NUMBER: 26
//
MOLECULE: CCCC(=O)OCCC(C)C [3-methylbutyl butanoate] + CCO
UNIT: mN/m
RESULT_NUMBER: 24.3
//
MOLECULE: CC(=O)OCCC(C)C [3-methylbutyl ethanoate] + CCO
UNIT: mN/m
RESULT_NUMBER: 23.9
//
MOLECULE: CCCCCC(=O)OCC [ethyl hexanoate] + CCO
UNIT: mN/m
RESULT_NUMBER: 25.1
//
MOLECULE: CCOC(=O)c1ccccc1 [ethyl benzoate] + CCO
UNIT: mN/m
RESULT_NUMBER: 31.9

====

PROTOCOL_SUMMARY: refractive index (Na D-line) (dimensionless)
CONDITION_DESCRIPTION: 298.15 K; 101.33 kPa; Liquid; Standard Abbe refractometry
The compounds listed here are annotated with their refractive index.

COMPOUND: CCCC(=O)OCCC(C)C [3-methylbutyl butanoate]
refractive index: 1.40815
--
COMPOUND: CCO
refractive index: 1.35941
--
COMPOUND: CCOC(=O)c1ccccc1 [ethyl benzoate]
refractive index: 1.50328
--
COMPOUND: CC(=O)OCCC(C)C [3-methylbutyl ethanoate]
refractive index: 1.39836
--
COMPOUND: CCOC(=O)Cc1ccccc1 [ethyl phenylacetate]
refractive index: 1.49513
--
COMPOUND: CCCCCCCC(=O)OCC [ethyl octanoate]
refractive index: 1.4156
--
COMPOUND: CCCCCC(=O)OCC [ethyl hexanoate]
refractive index: 1.40504

====

PROTOCOL_SUMMARY: refractive index (Na D-line) (dimensionless); xn = mol fraction of the nth substance listed
CONDITION_DESCRIPTION: 288.15 K; 100.5 kPa; Liquid; Standard Abbe refractometry; x1 = 0.75

COMPOUND: CCCCCCCC(=O)OCC [ethyl octanoate] + CCO
refractive index: 1.4148
--
COMPOUND: CCCCCC(=O)OCC [ethyl hexanoate] + CCO
refractive index: 1.40466
--
COMPOUND: CCOC(=O)Cc1ccccc1 [ethyl phenylacetate] + CCO
refractive index: 1.48536
--
COMPOUND: CCCC(=O)OCCC(C)C [3-methylbutyl butanoate] + CCO
refractive index: 1.40793
--
COMPOUND: CC(=O)OCCC(C)C [3-methylbutyl ethanoate] + CCO
refractive index: 1.39829
--
COMPOUND: CCOC(=O)c1ccccc1 [ethyl benzoate] + CCO
refractive index: 1.49115

====

Each entry below lists one item and its recorded surface tension liquid-gas value.
PROTOCOL_SUMMARY: xn = mol fraction of the nth substance listed
CONDITION_DESCRIPTION: 318.15 K, x1 = 0.1
ENDPOINT_LABEL: surface tension liquid-gas (mN/m)

MOLECULE: CCCCCC(=O)OCC [ethyl hexanoate] + CCO
UNIT: mN/m
RESULT_NUMBER: 21.2

MOLECULE: CCCCCCCC(=O)OCC [ethyl octanoate] + CCO
UNIT: mN/m
RESULT_NUMBER: 21.6

MOLECULE: CCOC(=O)Cc1ccccc1 [ethyl phenylacetate] + CCO
UNIT: mN/m
RESULT_NUMBER: 21.8

MOLECULE: CCCC(=O)OCCC(C)C [3-methylbutyl butanoate] + CCO
UNIT: mN/m
RESULT_NUMBER: 21.1

MOLECULE: CCOC(=O)c1ccccc1 [ethyl benzoate] + CCO
UNIT: mN/m
RESULT_NUMBER: 22.1

MOLECULE: CC(=O)OCCC(C)C [3-methylbutyl ethanoate] + CCO
UNIT: mN/m
RESULT_NUMBER: 20.6

Attribution: the NIST ThermoML archive (doi:10.1021/je0601208)
